Just for reference, ChEMBL document CHEMBL5137094 is where these values come from.

assay: GSH reactivity in potassium phosphate buffer at pH 7.4 assessed as half life at 0.15 mM at 30 degreeC measured for 30 to 60 mins by HPLC-MS analysis; type: physicochemical; settings: potassium phosphate buffer with GSH, time 30-60 min
reported_endpoint: half-life at 150 µM (min)
Numbers only, in min.

Reported half-life at 150 µM of CC[C@H](C)[C@H](NC(=O)CCC(=O)N[C@@H](CCCCNC(=O)[C@@H](CCCNC(=N)N)NC(=O)CCCCCCCC(=O)N1CCN(c2ncnc3[nH]ccc23)CC1)C(=O)N[C@H](CCCNC(=N)N)C(=O)N[C@H](CCCNC(=N)N)C(N)=O)C(=O)NCC(=O)CF : 44.4
